Test system: UO-31
Assay: NCI tumour cell line growth inhibition, 48 h
The source made the active and inactive calls. No stated cut-off is given here; in the data, active = GI50 up to about 1.1 µM and inactive = higher.
Outcome (select one): true (1) = active, false (0) = inactive

Per the assay record, what outcome was assigned to CCCCCCCCCCCCCCCCOCC(CCl)OP(=O)(O)OP(=O)(O)OCC1OC(n2ccc(N)nc2=O)C(O)C1O (centres undefined) ? false (0)

Per the assay record, what outcome was assigned to NC(=O)c1ncn(C2OC(CO)C(O)C2O)c1NC(=S)NC(=O)c1ccccc1 (centres undefined) ? false (0)

Per the assay record, what outcome was assigned to `CN(C)CCNC(=O)c1cccc2nc3c(ccc4ccccc43)nc12` ? false (0)

Further cases:
Per the assay record, what outcome was assigned to `CC(C)C(OC(=O)c1cc(NC(=S)c2ccccc2)ccc1Cl)C(C)C` ? false (0)

Per the assay record, what outcome was assigned to CCCCOC(=O)NC(c1ccccc1)C(O)C(=O)OC1C[C@@]2(O)C(OC(=O)c3ccccc3)C3[C@](C)(C(=O)[C@H](OC(C)=O)C(=C1C)C2(C)C)[C@@H](O)C[C@H]1OC[C@@]31OC(C)=O (some centres undefined) ? true (1)
